Attribution: ChEMBL document CHEMBL5291721

Please go through the items and note down their AC50.
molecular target: Thromboxane A2 receptor (Homo sapiens, UniProt P21731); note: assay procedure not described here
Sequence (P21731 whole entry): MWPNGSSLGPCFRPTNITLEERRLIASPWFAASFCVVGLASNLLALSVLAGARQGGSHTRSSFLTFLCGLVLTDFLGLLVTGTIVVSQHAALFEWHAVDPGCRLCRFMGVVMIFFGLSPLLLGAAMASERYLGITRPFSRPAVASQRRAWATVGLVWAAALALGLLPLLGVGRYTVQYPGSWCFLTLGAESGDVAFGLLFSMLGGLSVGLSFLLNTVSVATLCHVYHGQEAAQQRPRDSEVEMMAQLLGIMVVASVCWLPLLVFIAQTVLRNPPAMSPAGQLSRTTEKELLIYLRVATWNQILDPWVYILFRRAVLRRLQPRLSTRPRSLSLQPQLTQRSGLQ
Where a SMILES comes first, the peptide text is derived from it. [ ]: non-standard residue; d: D form. pGlu = O=C1CC[C@@H](C(=O)O)N1; Thz = O=C(O)[C@@H]1CSCN1

Here are 3 compounds together with their reported answers.
CC/C=C\C/C=C\C/C=C\C/C=C\C/C=C\CCCC(=O)OCC; > 30 µM
O=C1OC(OC(=O)c2cccnc2Nc2cccc(C(F)(F)F)c2)c2ccccc21 (stereo not drawn) [TALNIFLUMATE]; > 30 µM
C[C@@H]1C[C@H]2[C@@H]3C[C@H](F)C4=CC(=O)C=C[C@]4(C)[C@@]3(F)[C@@H](O)C[C@]2(C)[C@@]1(OC(=O)c1ccco1)C(=O)SCF [FLUTICASONE FUROATE]; > 10 µM

Please give AC50, item by item, for the list that follows.
1. CCCCCCCN(CC)CCCC(O)c1ccc(NS(C)(=O)=O)cc1 (stereo not drawn) [IBUTILIDE]
2. O=C1CC[C@@H](C(=O)N2CSC[C@H]2C(=O)O)N1 [PIDOTIMOD] ([pGlu]-[Thz]-OH)
3. COc1ccc2cc(CCC(C)=O)ccc2c1
4. Cc1nc(Nc2ncc(C(=O)Nc3c(C)cccc3Cl)s2)cc(N2CCN(CCO)CC2)n1
5. C[C@]12CCC(=O)C[C@@H]1CC[C@@H]1[C@@H]2CC[C@]2(C)[C@@H](O)CC[C@@H]12

Result:
> 30 µM
> 30 µM
> 10 µM
> 10 µM
> 30 µM

====

Target or system Kappa-type opioid receptor (Homo sapiens): recorded AC50 listed per item. Note: assay procedure not described here.

Below, 5 compounds whose answers are already recorded.
CCC(=O)O[C@]1(C(=O)CCl)[C@@H](C)C[C@H]2[C@@H]3CCC4=CC(=O)C=C[C@]4(C)[C@@]3(F)[C@@H](O)C[C@@]21C [CLOBETASOL PROPIONATE]; > 30 µM
COc1cc(C(=O)NS(=O)(=O)c2ccccc2C)ccc1Cc1cn(C)c2ccc(NC(=O)OC3CCCC3)cc12 [ZAFIRLUKAST]; 6.32 µM
O=C(NCCO[N+](=O)[O-])c1cccnc1 [NICORANDIL]; > 30 µM
C[C@]12CCC(=O)C[C@@H]1CC[C@@H]1[C@@H]2CC[C@]2(C)[C@@H](O)CC[C@@H]12 [STANOLONE]; > 30 µM
Cc1nc(Nc2ncc(C(=O)Nc3c(C)cccc3Cl)s2)cc(N2CCN(CCO)CC2)n1 [DASATINIB]; > 10 µM

For every record below, what is its AC50?
1. CC[C@@H](CO)NC(=O)[C@@H]1C=C2c3cccc4c3c(cn4C)C[C@H]2N(C)C1 [METHYSERGIDE]
2. CC(CN(C)C)C(C)(O)Cc1ccc(Cl)cc1 (centres undefined) [CLOBUTINOL]
3. CCc1nc(N)nc(N)c1-c1ccc(Cl)cc1 [PYRIMETHAMINE]
4. OC[C@H]1O[C@@H](Oc2cc(O)cc(/C=C/c3ccc(O)cc3)c2)[C@H](O)[C@@H](O)[C@@H]1O [PICEID]
5. NNC(=O)c1ccncc1 [ISONIAZID]
6. Cc1cccc(C)c1NC(=O)CC12CCCN1CCC2 [PILSICAINIDE]
7. CCc1cc2c(s1)-n1c(C)nnc1CN=C2c1ccccc1Cl [ETIZOLAM]

Result:
1: > 10 µM; 2: > 10 µM; 3: > 30 µM; 4: > 30 µM; 5: > 30 µM; 6: > 30 µM; 7: 2.5 µM

====

target: Voltage-dependent L-type calcium channel subunit alpha-1C (Rattus norvegicus, UniProt P22002); format: functional; note: assay procedure not described here
Sequence (P22002 whole entry): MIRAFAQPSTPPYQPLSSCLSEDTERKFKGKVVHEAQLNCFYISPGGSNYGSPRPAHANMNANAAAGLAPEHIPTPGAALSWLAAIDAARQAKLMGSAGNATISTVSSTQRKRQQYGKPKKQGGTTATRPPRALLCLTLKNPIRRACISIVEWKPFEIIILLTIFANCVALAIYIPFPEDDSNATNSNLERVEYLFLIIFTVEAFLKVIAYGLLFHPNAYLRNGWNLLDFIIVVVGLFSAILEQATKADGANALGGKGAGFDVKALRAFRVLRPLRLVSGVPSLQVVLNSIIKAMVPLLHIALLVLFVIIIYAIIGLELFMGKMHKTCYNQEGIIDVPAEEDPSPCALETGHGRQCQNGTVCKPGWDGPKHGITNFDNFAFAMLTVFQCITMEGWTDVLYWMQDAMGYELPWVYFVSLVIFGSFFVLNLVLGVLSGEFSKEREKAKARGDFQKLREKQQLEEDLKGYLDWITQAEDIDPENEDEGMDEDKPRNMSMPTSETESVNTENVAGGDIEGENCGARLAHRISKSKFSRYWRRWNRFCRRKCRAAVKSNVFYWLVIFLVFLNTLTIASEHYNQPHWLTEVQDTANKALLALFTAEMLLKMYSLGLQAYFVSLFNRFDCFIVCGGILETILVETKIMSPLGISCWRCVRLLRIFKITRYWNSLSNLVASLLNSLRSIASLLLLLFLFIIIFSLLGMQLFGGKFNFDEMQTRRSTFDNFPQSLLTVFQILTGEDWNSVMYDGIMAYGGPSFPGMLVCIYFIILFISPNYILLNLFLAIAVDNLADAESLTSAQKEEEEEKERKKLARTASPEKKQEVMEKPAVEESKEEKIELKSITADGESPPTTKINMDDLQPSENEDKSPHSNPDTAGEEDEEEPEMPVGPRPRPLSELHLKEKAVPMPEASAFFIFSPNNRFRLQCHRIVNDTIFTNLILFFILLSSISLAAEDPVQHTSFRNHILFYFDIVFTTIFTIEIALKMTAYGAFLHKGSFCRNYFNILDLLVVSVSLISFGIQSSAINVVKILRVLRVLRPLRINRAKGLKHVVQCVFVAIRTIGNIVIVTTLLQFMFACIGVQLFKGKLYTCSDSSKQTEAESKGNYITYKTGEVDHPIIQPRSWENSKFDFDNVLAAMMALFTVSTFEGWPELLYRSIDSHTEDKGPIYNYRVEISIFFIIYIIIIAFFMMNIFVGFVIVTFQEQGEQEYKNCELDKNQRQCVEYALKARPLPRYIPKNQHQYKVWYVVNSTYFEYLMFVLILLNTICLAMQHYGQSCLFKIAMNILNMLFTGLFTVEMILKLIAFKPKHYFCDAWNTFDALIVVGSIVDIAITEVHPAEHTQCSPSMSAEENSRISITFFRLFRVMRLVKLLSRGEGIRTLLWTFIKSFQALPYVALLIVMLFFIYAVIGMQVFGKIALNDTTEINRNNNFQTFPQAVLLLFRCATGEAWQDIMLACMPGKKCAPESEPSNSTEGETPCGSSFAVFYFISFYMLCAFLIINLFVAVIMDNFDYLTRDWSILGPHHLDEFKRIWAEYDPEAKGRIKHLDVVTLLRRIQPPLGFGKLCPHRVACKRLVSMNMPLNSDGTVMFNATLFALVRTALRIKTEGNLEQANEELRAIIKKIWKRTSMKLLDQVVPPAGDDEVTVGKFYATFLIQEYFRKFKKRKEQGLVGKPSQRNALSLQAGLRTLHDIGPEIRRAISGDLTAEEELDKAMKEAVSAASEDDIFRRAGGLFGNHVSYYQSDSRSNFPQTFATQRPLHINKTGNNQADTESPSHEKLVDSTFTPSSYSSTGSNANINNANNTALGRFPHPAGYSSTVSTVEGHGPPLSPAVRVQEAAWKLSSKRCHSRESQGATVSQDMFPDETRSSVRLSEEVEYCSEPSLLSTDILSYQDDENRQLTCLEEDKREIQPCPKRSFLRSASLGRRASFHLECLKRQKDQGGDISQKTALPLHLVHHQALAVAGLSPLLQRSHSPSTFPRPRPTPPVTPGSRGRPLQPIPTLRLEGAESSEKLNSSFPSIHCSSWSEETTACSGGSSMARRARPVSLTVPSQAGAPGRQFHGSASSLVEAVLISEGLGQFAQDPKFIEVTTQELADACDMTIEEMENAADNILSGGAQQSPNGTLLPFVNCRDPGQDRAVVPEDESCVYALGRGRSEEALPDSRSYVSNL
Kindly state AC50 for each of the entries shown.

Your task in this section: give AC50 for each listed record.
1. C[N+](C)(C)CCOP(=O)([O-])OC[C@H](O)CO
2. CCOC(=O)c1ccc(N)cc1 [BENZOCAINE]
3. NC(=O)NC(=O)Cc1ccccc1 [PHENACEMIDE]

Result:
["> 30 µM", "> 10 µM", "> 10 µM"]

====

For each of the compounds below, state its AC50.
Biological target: Muscarinic acetylcholine receptor M4 (Homo sapiens, UniProt P08173); note: assay procedure not described here
Sequence (P08173 whole entry): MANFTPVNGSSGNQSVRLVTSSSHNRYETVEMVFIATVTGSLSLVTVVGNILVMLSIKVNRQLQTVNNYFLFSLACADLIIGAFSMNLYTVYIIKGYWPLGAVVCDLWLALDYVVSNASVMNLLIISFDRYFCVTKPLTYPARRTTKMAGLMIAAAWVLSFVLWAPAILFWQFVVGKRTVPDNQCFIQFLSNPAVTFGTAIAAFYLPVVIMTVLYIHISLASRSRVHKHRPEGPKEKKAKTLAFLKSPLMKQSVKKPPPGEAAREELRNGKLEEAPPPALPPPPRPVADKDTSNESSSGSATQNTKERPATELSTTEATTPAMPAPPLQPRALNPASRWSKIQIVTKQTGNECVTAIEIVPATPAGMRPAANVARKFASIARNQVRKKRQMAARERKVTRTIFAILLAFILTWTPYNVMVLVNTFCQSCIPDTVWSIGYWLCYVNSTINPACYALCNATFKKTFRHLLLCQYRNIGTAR
One number for each entry, in µM.

CCCCOc1ccc(C(=O)CCN2CCCCC2)cc1; 13.4
Fc1ccc([C@@H]2CCNC[C@H]2COc2ccc3c(c2)OCO3)cc1; 3.47
C[N+]12CCC(CC1)C(OC(=O)C(O)(c1ccccc1)c1ccccc1)C2 (stereo not given); 0.0047

Next compound, AC50 to be filled in.
Request: For Muscarinic acetylcholine receptor M4 (Homo sapiens, UniProt P08173), give the measured AC50 of the entry CN(C)CCCN1c2ccccc2CCc2ccccc21
Result: 1.07

====

Hi! I'm sharing some AC50 results obtained with Neuropeptide Y receptor type 1 (Homo sapiens, UniProt P25929).
Sequence (P25929 whole entry): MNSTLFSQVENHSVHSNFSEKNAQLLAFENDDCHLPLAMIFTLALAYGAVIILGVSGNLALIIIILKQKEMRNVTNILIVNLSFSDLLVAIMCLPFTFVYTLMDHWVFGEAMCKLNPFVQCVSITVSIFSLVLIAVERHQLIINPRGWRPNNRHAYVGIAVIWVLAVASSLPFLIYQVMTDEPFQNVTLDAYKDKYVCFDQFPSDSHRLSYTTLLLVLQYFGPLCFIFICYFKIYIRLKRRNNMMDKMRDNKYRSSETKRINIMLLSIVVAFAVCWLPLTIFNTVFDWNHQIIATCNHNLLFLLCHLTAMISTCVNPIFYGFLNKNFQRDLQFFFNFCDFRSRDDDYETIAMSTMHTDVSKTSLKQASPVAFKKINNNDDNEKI

The following molecules have reported results that may help.
CC(O)(CS(=O)(=O)c1ccc(F)cc1)C(=O)Nc1ccc(C#N)c(C(F)(F)F)c1 (centres undefined) [BICALUTAMIDE]; > 30 µM
CC(C)[C@@H](C)/C=C/[C@@H](C)[C@H]1CC[C@H]2/C(=C/C=C3\C[C@@H](O)CC[C@@H]3C)CCC[C@]12C [DIHYDROTACHYSTEROL]; > 10 µM
O=C(O)Cc1ccccc1Oc1ccc(Cl)cc1Cl [FENCLOFENAC]; > 30 µM
COc1ccc2cc(CCC(C)=O)ccc2c1 [NABUMETONE]; > 10 µM
CCCCOc1ccc(C(=O)CCN2CCCCC2)cc1 [DYCLONINE]; > 30 µM

For the 3 molecules below, give their AC50 values.
1. C[N+]1(C)CCC(=C(c2ccccc2)c2ccccc2)CC1
2. C=CCN1CCc2nc(N)sc2CC1 [TALIPEXOLE]
3. COc1ccc([C@@H]2CC(=O)c3c(O)cc(O)cc3O2)cc1O [HESPERETIN]

Result:
1. > 30 µM
2. > 30 µM
3. > 10 µM

Request: Identify AC50 associated with the molecule CC[C@@H](CO)NC(=O)[C@@H]1C=C2c3cccc4c3c(cn4C)C[C@H]2N(C)C1 [METHYSERGIDE]
Result: > 30 µM

====

molecular target: 3',5'-cyclic-AMP phosphodiesterase 4A (Homo sapiens, UniProt P27815); assay type: functional; note: assay procedure not described here
Sequence (P27815 whole entry): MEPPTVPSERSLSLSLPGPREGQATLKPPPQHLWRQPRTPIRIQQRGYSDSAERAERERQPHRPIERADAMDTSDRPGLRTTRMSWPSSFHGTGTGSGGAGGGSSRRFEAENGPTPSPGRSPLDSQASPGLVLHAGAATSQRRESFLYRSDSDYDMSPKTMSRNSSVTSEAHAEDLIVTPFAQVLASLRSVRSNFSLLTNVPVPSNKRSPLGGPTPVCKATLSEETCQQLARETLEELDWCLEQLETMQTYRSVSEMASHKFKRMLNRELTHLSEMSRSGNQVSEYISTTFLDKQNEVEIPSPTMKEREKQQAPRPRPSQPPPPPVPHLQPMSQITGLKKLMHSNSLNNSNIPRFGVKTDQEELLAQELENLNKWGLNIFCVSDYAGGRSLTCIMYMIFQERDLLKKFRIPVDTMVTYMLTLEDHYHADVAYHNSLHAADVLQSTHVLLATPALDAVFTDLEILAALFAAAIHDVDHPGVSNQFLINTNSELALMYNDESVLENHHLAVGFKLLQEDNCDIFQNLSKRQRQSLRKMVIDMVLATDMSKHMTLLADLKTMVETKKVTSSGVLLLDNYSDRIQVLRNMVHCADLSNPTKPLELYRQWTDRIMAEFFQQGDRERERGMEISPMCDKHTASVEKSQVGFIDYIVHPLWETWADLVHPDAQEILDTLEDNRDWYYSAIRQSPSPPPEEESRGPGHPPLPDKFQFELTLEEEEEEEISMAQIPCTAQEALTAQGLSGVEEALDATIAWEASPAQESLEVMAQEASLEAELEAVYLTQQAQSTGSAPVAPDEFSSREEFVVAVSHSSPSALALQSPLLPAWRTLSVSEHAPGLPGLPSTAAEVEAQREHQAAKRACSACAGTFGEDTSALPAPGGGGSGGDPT
VALUE TYPE: AC50

Take a look at these entries with their results.
Nc1c(CC(=O)O)cccc1C(=O)c1ccc(Br)cc1; > 30 µM
COC(=O)C[C@](O)(CCCC(C)(C)O)C(=O)O[C@@H]1C(OC)=C[C@]23CCCN2CCc2cc4c(cc2[C@H]13)OCO4 [OMACETAXINE MEPESUCCINATE]; > 30 µM
C[C@H](N[C@@H](CCc1ccccc1)C(=O)O)C(=O)N1Cc2ccccc2C[C@H]1C(=O)O; > 30 µM
CC1(CCN2CCCCC2)C(=O)CCc2ccccc21 (stereo not drawn) [NEPINALONE]; > 30 µM
CCCc1nc2c(C)cc(-c3nc4ccccc4n3C)cc2n1Cc1ccc(-c2ccccc2C(=O)O)cc1; 13.5 µM
CC(C)NC(=N)NC(=N)Nc1ccc(Cl)c(Cl)c1; > 30 µM
CCCCC(CC)CN1CN(CC(CC)CCCC)CC(C)(N)C1 (stereo not drawn); > 30 µM
C[C@@H]1C[C@H]2[C@@H]3C[C@H](F)C4=CC(=O)C=C[C@]4(C)[C@@]3(F)[C@@H](O)C[C@]2(C)[C@@]1(OC(=O)c1ccco1)C(=O)SCF [FLUTICASONE FUROATE]; > 30 µM
CC(=O)NO [ACETOHYDROXAMIC ACID]; > 30 µM
O=C(O)Cc1ccccc1Nc1c(Cl)cccc1Cl; > 3 µM

Batch request: AC50 for each of the following compounds.
1. CC(CN1c2ccccc2Sc2ccccc21)N(C)C (stereo not drawn)
2. CC(=O)[C@]1(N)Cc2c(O)c3c(c(O)c2[C@@H](O[C@H]2C[C@H](O)[C@H](O)CO2)C1)C(=O)c1ccccc1C3=O

Result:
["> 30 µM", "> 30 µM"]

Please supply AC50 for each of the following items, keeping them in order.
1. CCNC(=O)/C=C(C)/C=C/C=C(C)/C=C/c1c(C)cc(OC)c(C)c1C [MOTRETINIDE]
2. CC(=O)O[C@]1(C(C)=O)CC[C@H]2[C@@H]3C=C(Cl)C4=CC(=O)[C@@H]5C[C@@H]5[C@]4(C)[C@H]3CC[C@@]21C [CYPROTERONE ACETATE]
3. Cc1ccc(S(=O)(=O)NC(=O)NC2CCCCC2)cc1 [GLYCYCLAMIDE]
4. CCCn1cnc2c1c(=O)n(CCCCC(C)=O)c(=O)n2C
5. CC(=O)OCC(=O)[C@@]1(O)CC[C@H]2[C@@H]3CCC4=CC(=O)CC[C@]4(C)[C@H]3[C@@H](O)C[C@@]21C [HYDROCORTISONE ACETATE]
6. CCCSc1nc(N[C@@H]2C[C@H]2c2ccc(F)c(F)c2)c2nnn([C@@H]3C[C@H](OCCO)[C@@H](O)[C@H]3O)c2n1

Result:
["> 30 µM", "> 30 µM", "> 30 µM", "8.96 µM", "> 30 µM", "21.3 µM"]

// for each compound below, give its AC50
1. O=C(O)CN(CCN(CC(=O)O)CC(=O)O)CCN(CC(=O)O)CC(=O)O
2. COc1ccc(OC)c(C(O)C(C)N)c1 (stereo not drawn)
3. O=C(NNCS(=O)(=O)O)c1ccncc1 [METHANIAZIDE]
4. CC(C)[C@@H]1CC[C@@H](C)C[C@H]1O

Result:
> 30 µM
> 30 µM
> 30 µM
> 30 µM

Provide AC50 for all items below, preserving their order.
1. C=C1CC[C@H](O)C/C1=C/C=C1\CCC[C@]2(C)[C@@H]([C@H](C)CCCC(C)C)CC[C@@H]12
2. C#C[C@]1(O)C=C[C@H]2[C@@H]3CCC4=CC(=O)CC[C@@H]4[C@H]3CC[C@@]21CC
3. N=C(N)N/N=C/c1c(Cl)cccc1Cl
4. CC[C@H]1OC(=O)[C@H](C)[C@@H](O[C@H]2C[C@@](C)(OC)[C@@H](O)[C@H](C)O2)[C@H](C)[C@@H](O[C@@H]2O[C@H](C)C[C@H](N(C)C)[C@H]2O)[C@](C)(O)C[C@@H](C)[C@@H]2N[C@@H](COCCOC)O[C@H]([C@H]2C)[C@]1(C)O
5. COc1ccc2c(C(=S)N(C)CC(=O)O)cccc2c1C(F)(F)F
6. Cc1ncc2c(c1O)COC2c1ccc(Cl)cc1 (stereo not drawn)
7. CC(COc1ccccc1)NC(C)C(O)c1ccc(O)cc1 (stereo not drawn)
8. Cc1cc(=O)oc2cc(O)ccc12

Result:
["> 30 µM", "> 30 µM", "> 30 µM", "> 30 µM", "> 30 µM", "> 30 µM", "> 30 µM", "> 30 µM"]

I would be grateful if you could provide AC50 for each of the following entries.
1. Cc1cc(=O)[nH]c(=S)[nH]1
2. CCCCC1C(=O)N(c2ccccc2)N(c2ccc(O)cc2)C1=O (stereo not drawn) [OXYPHENBUTAZONE ANHYDROUS]
3. C=CC(=O)Nc1cccc(Oc2nc(Nc3ccc(N4CCN(C)CC4)cc3)nc3ccsc23)c1

Result:
> 30 µM
> 30 µM
3.19 µM
